Test system: NK cells (cytotoxicity against K562 target cells)
Test Name: cells
Recorded Metric: effect on monocyte-induced inhibition of baseline NK cell cytotoxicity

>>> readout_value("NCCS(=O)(=O)O")
"ineffective"
>>> readout_value("CC(=O)N(O)CCCCCNC(=O)CCC(=O)N(O)CCCCCNC(=O)CCC(=O)N(O)CCCCCN")
"ineffective"
>>> readout_value("OC[C@@H](O)[C@@H](O)[C@H](O)[C@H](O)CO")
"ineffective"

Each recorded value in this set is attributed to patent US6375946B1.
